# Read-out: Collagen III, COL3A1 (gene 1281)
# assayDetails: BSK_hDFCGF_CollagenIII: BioMAP Diversity Plus: hDFCGF Assay for Collagen III Biomarker Activity (AID 2283056)
# conditionNotes: primary human foreskin fibroblasts; actives raise or lower the signal
The source made the active and inactive calls. The calls were made as follows: active = hit-call score of the fitted dose curve at least 0.9, where 1 is the maximum; inactive = score below 0.9.
measuredMetric: AC50

Record excerpt, results attached:
O=c1c(-c2ccc(O)cc2)coc2cc(O)ccc12 : inactive
Cc1oc(-c2ccccc2)nc1CCOc1ccc(C[C@H](Nc2ccccc2C(=O)c2ccccc2)C(=O)O)cc1 : 3.34 µM (active)
NC(=O)N1C(=O)C(C(=O)c2cc(Cl)cs2)c2cc(F)c(Cl)cc21 (stereo not given) : 4.54 µM (active)
CC[C@H](C)[C@@H](C(=O)O)n1sc2ccccc2c1=O : inactive

For the next question, use this compound.
INPUT: Identify measured AC50 corresponding to `CC(C)(C)c1cc(C(C)(C)C)c(O)c(C(C)(C)C)c1`
OUTPUT: 29.3 µM (active)
